Tested on: CAKI-1
TEST DETAILS: NCI tumour cell line growth inhibition, 48 h
Where a name gives a salt, the structure may show the parent alone. Activity calls are given as the source filed them. No stated cut-off is given here; in the data, active = GI50 up to about 1.1 µM and inactive = higher.
MEASURED METRIC: GI50

> print(dat)
                                   molecule  measured.metric            obs.value
1              COC(=O)/C=C(/C)n1nc2ccccc2n1             GI50  > 100 µM (inactive)
2  CN[C@@H]1[C@H](O)[C@H](NC)[C@H]2O[C@@]3(O)C(=O)C[C@@H](C)O[C@H]3O[C@@H]2[C@H]1O [SPECTINOMYCIN SULFATE]             GI50  > 100 µM (inactive)
3  N#CC(Cl)CS(=O)(=O)c1ccccc1 (stereo not given)             GI50   3.06 µM (inactive)
4  CCOC(=O)C(C(=O)OCC)C1C=CCC2c3ccccc3COCC21 (stereo not given)             GI50   26.5 µM (inactive)

Task: Given the entry O=C(O)c1cc2ccccc2c(/N=N/c2ccc(S(=O)(=O)Nc3ccccn3)cc2)c1O , report its measured GI50.
Output: > 100 µM (inactive)
